Target: XccFPR (Xanthomonas citri pv. citri, UniProt A0AAI7ZED9)
Sequence (A0AAI7ZED9 1-259): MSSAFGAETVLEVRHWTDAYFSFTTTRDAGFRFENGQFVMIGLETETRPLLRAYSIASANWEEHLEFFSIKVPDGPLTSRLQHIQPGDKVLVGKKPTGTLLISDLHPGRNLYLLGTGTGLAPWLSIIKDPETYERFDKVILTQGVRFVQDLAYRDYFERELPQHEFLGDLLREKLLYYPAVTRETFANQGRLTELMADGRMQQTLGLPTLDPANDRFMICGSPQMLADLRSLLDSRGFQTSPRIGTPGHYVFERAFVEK
Experiment: NADPH-dependent DCPIP diaphorase activity of XccFPR, dose-response of inhibitors
Format: biochemical, Xanthomonas citri subsp. citri
Hi there, I'd appreciate the recorded pIC50 for every entry that follows.
Please express pIC50 as -log10 of the molar concentration.

## Task Give a short answer stating reported pIC50 for O=[N+]([O-])c1ccc(Oc2c(Cl)cccc2Cl)cc1 [C4, 1,3-dichloro-2-(4-nitrophenoxy)benzene] .
## Result 4.44

## Task Tell us which pIC50 value is on record for CC(C)S(=O)(=O)c1c(SCC#N)sc(C#N)c1N [C27]
## Result 4.05

## Task Please give measured pIC50 of the following entry: O=C(CSc1nc2cc(Cl)ccc2o1)Nc1cc(C(F)(F)F)cc(C(F)(F)F)c1 [C5]
## Result 4.34

## Task Using known records, supply pIC50 for Cc1cccc(C)c1NC(=O)Nc1cccs1 [D7]
## Result 3.82

## Task Name the recorded pIC50 of the item O=C(Nc1ccc(Cl)cc1)Nc1nnc(SCc2ccc(Cl)cc2)s1 [D5] in your answer.
## Result 5.18

## Task Look up pIC50 of Cc1nc(-c2cc(C#N)c(SCCNS(=O)(=O)c3cccc(C(F)(F)F)c3)nc2C)cs1 [C19] and report it.
## Result 4.77

## Task Please report pIC50 for the following molecule: CCOC(=O)C1=C(C)NC(C)=C(C(=O)OCC)C1c1ccc(-c2cc(C(F)(F)F)ccc2Cl)o1 [C21]
## Result 4.85

## Task Recall and state the measured pIC50 for O=C1/C(=C/c2cccs2)CCC/C1=C\c1cccs1 [C22] .
## Result 4.24

## Task Dear colleague, please send me the reported pIC50 for O=C(O)c1c2c(nc3ccccc13)CSc1ccc(Cl)cc1-2 [C30] when you can.
## Result 4.54

====

Target: UniProt A0AAI7ZED9
Test: NADPH-dependent DCPIP diaphorase activity of XccFPR, dose-response of inhibitors
Assay type: biochemical, Xanthomonas citri subsp. citri
RESULT_TYPE: pIC50
API: returns pIC50 as number; meaning -log10 of concentration in mol/L.

## Task Using UniProt A0AAI7ZED9 as the test system, report measured pIC50 of O=C(Nc1cccc(Cl)c1)Nc1ccccc1NS(=O)(=O)c1cccs1 [D1] .
## Result 4.12

## Task Give pIC50; test system UniProt A0AAI7ZED9; compound COC(=O)c1sccc1NC(=O)Cc1cccs1 [C26]
## Result 4.48

## Task Report value: pIC50, system: UniProt A0AAI7ZED9, compound: O=C(Nc1ccccc1-c1nc(-c2ccc(Cl)cc2)no1)C(F)(F)F [C29]
## Result 4.96
